Each record here notes measured pIC50.
- systemTested: T1, Murine Gαq (amino acids 7-359), biotinylated (mouse, UniProt P21279 7-359, biotinylated with biotinamidohexanoic acid N-hydroxysuccinimide)
- T1 sequence (looked up): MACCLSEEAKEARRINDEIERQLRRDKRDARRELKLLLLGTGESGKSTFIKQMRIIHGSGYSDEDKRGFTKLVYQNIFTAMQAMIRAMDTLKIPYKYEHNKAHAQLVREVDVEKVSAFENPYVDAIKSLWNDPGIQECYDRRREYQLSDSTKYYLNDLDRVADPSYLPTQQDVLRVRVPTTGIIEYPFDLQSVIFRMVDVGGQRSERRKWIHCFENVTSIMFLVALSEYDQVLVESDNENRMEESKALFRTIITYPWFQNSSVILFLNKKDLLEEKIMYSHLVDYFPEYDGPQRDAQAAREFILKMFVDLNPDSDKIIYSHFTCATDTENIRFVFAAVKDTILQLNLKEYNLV
- protocolDetails: bead-based flow cytometry competition assay
pIC50: −log10 of the molar value.
assayEndpoint: pIC50

{"binder": "RGS2 RH domain (residues 72-203) S179N (domain or fragment, human) GEFGSPSPEEAQLWSEAFDELLASKYGLAAFRAFLKSEFCEENIEFWLACEDFKKTKSPQKLSSKARKIYTDFIEKEAPKEINIDFQTKTLIAQNIQEATSGCFTTAQKRVYNLMENNSYPRFLESEFYQDLCKKPQ", "assayEndpoint": "pIC50", "experimentalValue": 6.16}
{"binder": "RGS2 RH domain (residues 72-203) S179M (domain or fragment, human) GEFGSPSPEEAQLWSEAFDELLASKYGLAAFRAFLKSEFCEENIEFWLACEDFKKTKSPQKLSSKARKIYTDFIEKEAPKEINIDFQTKTLIAQNIQEATSGCFTTAQKRVYMLMENNSYPRFLESEFYQDLCKKPQ", "assayEndpoint": "pIC50", "experimentalValue": 6.89}
{"binder": "RGS2 RH domain (residues 72-203) E182A (domain or fragment, human) GEFGSPSPEEAQLWSEAFDELLASKYGLAAFRAFLKSEFCEENIEFWLACEDFKKTKSPQKLSSKARKIYTDFIEKEAPKEINIDFQTKTLIAQNIQEATSGCFTTAQKRVYSLMANNSYPRFLESEFYQDLCKKPQ", "assayEndpoint": "pIC50", "experimentalValue": 6.52}
{"binder": "RGS2 RH domain (residues 72-203) N183A (domain or fragment, human) GEFGSPSPEEAQLWSEAFDELLASKYGLAAFRAFLKSEFCEENIEFWLACEDFKKTKSPQKLSSKARKIYTDFIEKEAPKEINIDFQTKTLIAQNIQEATSGCFTTAQKRVYSLMEANSYPRFLESEFYQDLCKKPQ", "assayEndpoint": "pIC50", "experimentalValue": 5.82}
